Test: Half life in rat at 1 mg/kg, iv
Assay type: ADME, organism-based
Set-up: dose 1 mg/kg, route intravenous
Conditions: in vivo

{"STRUCTURE_SMILES_STRING": "O=C(CN1C(=O)CCc2ncccc21)Nc1scc(Br)c1-c1ncn[nH]1", "UNITS": "min", "half-life": 2.5}
{"STRUCTURE_SMILES_STRING": "O=C(Cn1c(=O)ccc2cc(F)c(F)cc21)Nc1scc(Br)c1-c1ncn[nH]1", "UNITS": "min", "half-life": 2.3}
{"STRUCTURE_SMILES_STRING": "O=C(Cn1c(=O)ccc2cc(C(F)(F)F)ccc21)Nc1scc(Br)c1-c1ncn[nH]1", "UNITS": "min", "half-life": 4.6}

----------
Measured remaining at 0.5 h, 1 µM by item
Test: Oxidative metabolic stability in mouse liver microsomes assessed as compound remaining at 1 uM after 30 mins
Format: ADME, Microsome
Settings: read-out: Stability
MEASURE: remaining at 0.5 h, 1 µM (%)

{"STRUCTURE_SMILES_STRING": "O=C(Cc1cccc2ncc(F)cc12)Nc1scc(Br)c1-c1nc[nH]n1", "OBSERVED_MEASUREMENT": 2}
{"STRUCTURE_SMILES_STRING": "N#Cc1ccc2c(ccc(=O)n2CC(=O)Nc2scc(Br)c2-c2ncn[nH]2)c1", "OBSERVED_MEASUREMENT": 60}
{"STRUCTURE_SMILES_STRING": "O=C(Cn1c(=O)ccc2c(C(F)(F)F)cccc21)Nc1scc(Br)c1-c1ncn[nH]1", "OBSERVED_MEASUREMENT": 27}
{"STRUCTURE_SMILES_STRING": "N#Cc1csc(NC(=O)CN2C(=O)CCc3ncccc32)c1-c1nccs1", "OBSERVED_MEASUREMENT": 7}
{"STRUCTURE_SMILES_STRING": "O=C(Cn1c(=O)ccc2nc(C(F)(F)F)ccc21)Nc1scc(Br)c1-c1ncn[nH]1", "OBSERVED_MEASUREMENT": 35}

----------
Measured IC50 by item
Biological target: Mitogen-activated protein kinase 1 (Homo sapiens, UniProt P28482)
Sequence (P28482 whole entry): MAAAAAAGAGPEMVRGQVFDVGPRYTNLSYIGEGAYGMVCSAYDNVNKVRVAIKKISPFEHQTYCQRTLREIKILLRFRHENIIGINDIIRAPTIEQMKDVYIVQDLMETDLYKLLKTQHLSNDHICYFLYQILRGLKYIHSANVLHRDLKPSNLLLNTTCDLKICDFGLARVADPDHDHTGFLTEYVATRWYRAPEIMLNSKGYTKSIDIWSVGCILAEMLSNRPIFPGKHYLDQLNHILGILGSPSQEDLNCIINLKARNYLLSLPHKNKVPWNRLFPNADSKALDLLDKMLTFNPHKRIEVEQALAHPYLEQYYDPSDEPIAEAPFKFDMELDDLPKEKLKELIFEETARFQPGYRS
Assay: Inhibition of recombinant ERK2 using Ser383 of Elk-1 as substrate preincubated for 15 mins measured after 60 mins by TR-FRET assay

{"STRUCTURE_SMILES_STRING": "O=C(Cn1c(=O)ccc2cc(F)c(F)cc21)Nc1scc(Br)c1-c1ncn[nH]1", "IC50": "> 50 µM"}
{"STRUCTURE_SMILES_STRING": "N#Cc1ccc2c(ccc(=O)n2CC(=O)Nc2scc(Br)c2-c2ncn[nH]2)c1", "IC50": "> 50 µM"}
{"STRUCTURE_SMILES_STRING": "O=C(CN1C(=O)CCc2ncccc21)Nc1scc(Br)c1-c1ncn[nH]1", "IC50": "> 0.5 µM"}
{"STRUCTURE_SMILES_STRING": "O=C(Cn1c(=O)ccc2cc(C(F)(F)F)ccc21)Nc1scc(Br)c1-c1ncn[nH]1", "IC50": "> 50 µM"}

----------
Molecular target: Mitogen-activated protein kinase 8 (Homo sapiens, UniProt P45983)
Sequence (P45983 whole entry): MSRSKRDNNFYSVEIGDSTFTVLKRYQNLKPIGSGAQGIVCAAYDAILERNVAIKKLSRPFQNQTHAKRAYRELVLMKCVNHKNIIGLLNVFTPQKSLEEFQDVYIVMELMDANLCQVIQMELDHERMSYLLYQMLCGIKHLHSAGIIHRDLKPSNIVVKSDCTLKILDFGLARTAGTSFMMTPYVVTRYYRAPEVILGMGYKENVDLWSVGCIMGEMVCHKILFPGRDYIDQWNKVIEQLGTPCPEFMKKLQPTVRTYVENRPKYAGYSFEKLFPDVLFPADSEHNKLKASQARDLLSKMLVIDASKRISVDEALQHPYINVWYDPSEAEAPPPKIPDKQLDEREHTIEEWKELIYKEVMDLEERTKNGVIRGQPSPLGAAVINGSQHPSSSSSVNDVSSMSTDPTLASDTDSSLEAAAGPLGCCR
Assay: Inhibition of recombinant JNK1 using ser73 of c-jun as substrate preincubated for 15 mins measured after 60 mins by TR-FRET assay
Rule: IC50 below 8 nM gives 1.0. Equal to or above 8 nM gives 0.0.

{"STRUCTURE_SMILES_STRING": "O=C(Cn1c(=O)ccc2cc(OC(F)(F)F)ccc21)Nc1scc(Br)c1-c1ncn[nH]1", "CLASS_NAME": 1.0}
{"STRUCTURE_SMILES_STRING": "N#Cc1ccc2c(ccc(=O)n2CC(=O)Nc2scc(Br)c2-c2ncn[nH]2)c1", "CLASS_NAME": 1.0}
{"STRUCTURE_SMILES_STRING": "O=C(Cc1ccc(C(F)(F)F)c2ncccc12)Nc1scc(Cl)c1-c1ncn[nH]1", "CLASS_NAME": 0.0}
{"STRUCTURE_SMILES_STRING": "N#Cc1csc(NC(=O)CN2C(=O)CCc3ncccc32)c1-c1nccs1", "CLASS_NAME": 0.0}
{"STRUCTURE_SMILES_STRING": "O=C(Cc1cccc2ncc(F)cc12)Nc1scc(Br)c1-c1nc[nH]n1", "CLASS_NAME": 0.0}
{"STRUCTURE_SMILES_STRING": "N#Cc1ccc2ccc(=O)n(CC(=O)Nc3scc(Br)c3-c3ncn[nH]3)c2c1", "CLASS_NAME": 1.0}
{"STRUCTURE_SMILES_STRING": "N#Cc1csc(NC(=O)Cn2c(=O)ccc3cc(C(F)(F)F)ccc32)c1-c1ncco1", "CLASS_NAME": 1.0}
{"STRUCTURE_SMILES_STRING": "N#Cc1csc(NC(=O)Cn2c(=O)ccc3cc(C(F)(F)F)ccc32)c1-c1nccs1", "CLASS_NAME": 1.0}
